Origin of values: the supplement of paper PMC10724198

# System: Saccharomyces cerevisiae
# Run Description: protein stability index of tFT-peptide fusion (C-terminal peptide) (PSI (0-1 scale)); higher = more stable (slower turnover)
# Measurement Context: genetic background: wild type; temperature: 30 C
Item-by-item account of protein stability index

>  <Sequence Record>
GRTWCFVGARPS

>  <protein stability index>
0.698

$$$$
>  <Sequence Record>
CMGRCGVCCERS

>  <protein stability index>
0.711

$$$$
>  <Sequence Record>
SPHRQIRKRFEK

>  <protein stability index>
0.714

$$$$

====

# System: Saccharomyces cerevisiae
# Run Description: protein stability index of tFT-peptide fusion (C-terminal peptide) (PSI (0-1 scale)); higher = more stable (slower turnover)
# Measurement Context: genetic background: das1 deletion; temperature: 30 C
Item-by-item account of protein stability index
Property Label: protein stability index

>  <Sequence Record>
SPIQLKDLESQI [SYS1 C-terminal 12 aa]

>  <Reading>
0.677

$$$$
>  <Sequence Record>
ECAPVPPAVRSY [SDH9 C-terminal 12 aa]

>  <Reading>
0.683

$$$$
>  <Sequence Record>
MPSATTKNPYAQ [CAF120 C-terminal 12 aa]

>  <Reading>
0.709

$$$$

====

Item-by-item account of protein stability index
# System: Saccharomyces cerevisiae
# Run Description: protein stability index of tFT-peptide fusion (C-terminal peptide) (PSI (0-1 scale)); higher = more stable (slower turnover)
# Measurement Context: genetic background: wild type; temperature: 30 C

>  <Sequence Record>
VGGRVESLGVGD

>  <protein stability index>
0.584

$$$$
>  <Sequence Record>
RRFQYLTENYQK

>  <protein stability index>
0.621

$$$$
>  <Sequence Record>
GWGGEGQNGSEG

>  <protein stability index>
0.638

$$$$
>  <Sequence Record>
CGVSRIGLAGDV

>  <protein stability index>
0.671

$$$$
>  <Sequence Record>
MVSSIESHIVLY

>  <protein stability index>
0.66

$$$$
>  <Sequence Record>
FFLRNRPPLCGQ

>  <protein stability index>
0.665

$$$$
>  <Sequence Record>
QGRCHSRARMTP

>  <protein stability index>
0.731

$$$$
>  <Sequence Record>
RCSAPWFSPYPP

>  <protein stability index>
0.645

$$$$
>  <Sequence Record>
GRAGLDLACWWK

>  <protein stability index>
0.709

$$$$
>  <Sequence Record>
LLSNDNRIKTIR

>  <protein stability index>
0.725

$$$$
>  <Sequence Record>
PNPTPYRRPCPP

>  <protein stability index>
0.685

$$$$
>  <Sequence Record>
RHPTITAPTPTP

>  <protein stability index>
0.748

$$$$
>  <Sequence Record>
FCGGSWTDGFGW

>  <protein stability index>
0.737

$$$$
>  <Sequence Record>
PSPPLPPPPSPY

>  <protein stability index>
0.72

$$$$
>  <Sequence Record>
PLPPPPPPPSSP

>  <protein stability index>
0.726

$$$$
>  <Sequence Record>
GPRVILALLSRR

>  <protein stability index>
0.684

$$$$
>  <Sequence Record>
FLSHRMNMSGLA

>  <protein stability index>
0.658

$$$$
>  <Sequence Record>
LYKEQRNNCGKI

>  <protein stability index>
0.662

$$$$
>  <Sequence Record>
PRQGGDFVARVG

>  <protein stability index>
0.7

$$$$
>  <Sequence Record>
PLPHPPPLALRT

>  <protein stability index>
0.655

$$$$
>  <Sequence Record>
PGPCLLFPPFPP

>  <protein stability index>
0.643

$$$$
>  <Sequence Record>
VCWLTCCGQLIA

>  <protein stability index>
0.514

$$$$
>  <Sequence Record>
FSCWLFMLCVFL

>  <protein stability index>
0.393

$$$$
>  <Sequence Record>
SNQHKKKNQLRE

>  <protein stability index>
0.693

$$$$
>  <Sequence Record>
GLARPLYALYRR

>  <protein stability index>
0.618

$$$$
>  <Sequence Record>
LVSPPTPPPFPP

>  <protein stability index>
0.702

$$$$
>  <Sequence Record>
PNTSVAATPHDF

>  <protein stability index>
0.67

$$$$
>  <Sequence Record>
SLVSGPRPPSAF

>  <protein stability index>
0.737

$$$$
>  <Sequence Record>
RWWGDEAHRDGA

>  <protein stability index>
0.81

$$$$
>  <Sequence Record>
STVESAWPAGPA

>  <protein stability index>
0.712

$$$$
>  <Sequence Record>
LTYLLFPSSLQA

>  <protein stability index>
0.677

$$$$
>  <Sequence Record>
FIGGCYCSVKSL

>  <protein stability index>
0.705

$$$$
>  <Sequence Record>
VQGEGVVAISMT

>  <protein stability index>
0.712

$$$$
>  <Sequence Record>
CSTYPLFPTLPP

>  <protein stability index>
0.693

$$$$
>  <Sequence Record>
QPQRSRLRQQNT

>  <protein stability index>
0.734

$$$$
>  <Sequence Record>
HAEREDTESQTR

>  <protein stability index>
0.714

$$$$
>  <Sequence Record>
WCKLLGGSVFGE

>  <protein stability index>
0.671

$$$$
>  <Sequence Record>
PSPFPLPLSFAR

>  <protein stability index>
0.538

$$$$
>  <Sequence Record>
PAVHLYFIPPTG

>  <protein stability index>
0.644

$$$$
>  <Sequence Record>
GGVASGGCFWGR

>  <protein stability index>
0.676

$$$$
>  <Sequence Record>
GYETTQSGFLSS

>  <protein stability index>
0.589

$$$$
>  <Sequence Record>
KSLNTAGVLTGR

>  <protein stability index>
0.68

$$$$
>  <Sequence Record>
VYFFSSIFRCFV

>  <protein stability index>
0.544

$$$$
>  <Sequence Record>
PRPPAPPDPAPP

>  <protein stability index>
0.746

$$$$
>  <Sequence Record>
PLFLPLVPPQIL

>  <protein stability index>
0.682

$$$$
>  <Sequence Record>
LGSAAVPGLCRL

>  <protein stability index>
0.853

$$$$
>  <Sequence Record>
VYYDSVVSLSGA

>  <protein stability index>
0.661

$$$$
>  <Sequence Record>
RGGWRGVWGHVV

>  <protein stability index>
0.599

$$$$
>  <Sequence Record>
PPPRPPPPSCPP

>  <protein stability index>
0.685

$$$$
>  <Sequence Record>
PTYTPAFPPVSS

>  <protein stability index>
0.699

$$$$
>  <Sequence Record>
FFRAYLQMYVTD

>  <protein stability index>
0.362

$$$$
>  <Sequence Record>
SPPAPPVSPPPP

>  <protein stability index>
0.744

$$$$
>  <Sequence Record>
GIGRGLGGLKSG

>  <protein stability index>
0.617

$$$$
>  <Sequence Record>
DVLGCHRCLGFC

>  <protein stability index>
0.699

$$$$
>  <Sequence Record>
LVFGRGCGWLSG

>  <protein stability index>
0.664

$$$$
>  <Sequence Record>
CHSIEGSEPREA

>  <protein stability index>
0.694

$$$$
>  <Sequence Record>
VVHVGVWGLGRG

>  <protein stability index>
0.648

$$$$
>  <Sequence Record>
SPYLRISGLVFC

>  <protein stability index>
0.557

$$$$
>  <Sequence Record>
GRGPRTTKAGRG

>  <protein stability index>
0.7

$$$$
>  <Sequence Record>
CAAYIQNLPFPF

>  <protein stability index>
0.727

$$$$
>  <Sequence Record>
CSAVVPASARTP

>  <protein stability index>
0.606

$$$$
>  <Sequence Record>
LFGLLSSPLCVD

>  <protein stability index>
0.63

$$$$
>  <Sequence Record>
NFATLFSLCCLY

>  <protein stability index>
0.611

$$$$
>  <Sequence Record>
KKENKQEKKNMI

>  <protein stability index>
0.709

$$$$
>  <Sequence Record>
TARVPARLTHAS

>  <protein stability index>
0.683

$$$$
>  <Sequence Record>
LFFWFMYLRRLI

>  <protein stability index>
0.172

$$$$
>  <Sequence Record>
TSTTGLHVSAMS

>  <protein stability index>
0.727

$$$$
>  <Sequence Record>
SFIVGYRWNNRN

>  <protein stability index>
0.443

$$$$
>  <Sequence Record>
KKIKKRNIKKKT

>  <protein stability index>
0.67

$$$$
>  <Sequence Record>
SPRQARSFLTSS

>  <protein stability index>
0.756

$$$$
>  <Sequence Record>
IVIFQTAYVVRI

>  <protein stability index>
0.213

$$$$
>  <Sequence Record>
VGCMVVIWVLWG

>  <protein stability index>
0.325

$$$$
>  <Sequence Record>
EVGMDLTTGPIS

>  <protein stability index>
0.619

$$$$
>  <Sequence Record>
PRPFPLSCSPPV

>  <protein stability index>
0.751

$$$$
>  <Sequence Record>
GAVARFRERALS

>  <protein stability index>
0.525

$$$$
>  <Sequence Record>
RHILPNKCRLHH

>  <protein stability index>
0.714

$$$$
